Reference for the values: patent US20180334496A1

# assayTarget: T1, human complement factor D purified from serum (human, UniProt P00746 26-253)
# T1 construct: serum-purified (CompTech); also called hCFD-Comptech; CFD
# T1 sequence (P00746 26-253): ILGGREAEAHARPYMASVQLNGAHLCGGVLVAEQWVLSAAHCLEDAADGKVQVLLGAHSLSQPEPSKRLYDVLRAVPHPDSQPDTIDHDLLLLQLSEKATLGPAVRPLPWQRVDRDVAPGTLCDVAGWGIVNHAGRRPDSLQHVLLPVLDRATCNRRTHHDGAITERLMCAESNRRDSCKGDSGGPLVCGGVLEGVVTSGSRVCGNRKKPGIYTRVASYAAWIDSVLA
# experimentNotes: Biacore, protein A capture
assayReadout: kon (M⁻¹ s⁻¹)
The answer is to be given in M⁻¹ s⁻¹; state only the numeric part.

Exam item: Endpoint output: kon of 54V59D heavy chain / KCD119 TAF light chain (antibody, V domains shown, IgG) VH: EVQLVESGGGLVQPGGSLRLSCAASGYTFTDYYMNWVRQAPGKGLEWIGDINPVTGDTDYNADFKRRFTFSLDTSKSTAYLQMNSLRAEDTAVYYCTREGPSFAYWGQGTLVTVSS VL: DIQLTQSPSSLSASVGDRVTITCRSSQTIVHSNGDTYLEWYQQKPGKAPNLLIYKVSNRFSGVPSRFSGSGSGTDFTLTISSLQPEDFATYYCFQGSHVPPTFGQGTKVEIK . Value?
Marked response: 5.85e+06

Exam item: Endpoint output: kon of KCD119 TAF heavy chain / KCD119 TAF light chain (antibody, V domains shown, humanized full IgG captured on protein A; also called TAF KCD119) VH: EVQLVESGGGLVQPGGSLRLSCAASGYTFTDYYMNWVRQAPGKGLEWIGDINPNTGDTSYNADFKRRFTFSLDTSKSTAYLQMNSLRAEDTAVYYCTREGPSFAYWGQGTLVTVSS VL: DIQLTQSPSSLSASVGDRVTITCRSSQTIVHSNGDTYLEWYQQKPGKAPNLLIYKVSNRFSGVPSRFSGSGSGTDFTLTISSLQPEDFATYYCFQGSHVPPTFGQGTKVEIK . Value?
Marked response: 4.46e+06

Exam item: Endpoint output: kon of 54V59D heavy chain / 101V light chain (antibody, V domains shown, IgG) VH: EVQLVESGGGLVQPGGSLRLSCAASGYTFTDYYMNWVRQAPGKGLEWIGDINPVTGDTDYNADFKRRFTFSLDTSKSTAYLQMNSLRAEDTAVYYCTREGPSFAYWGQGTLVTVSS VL: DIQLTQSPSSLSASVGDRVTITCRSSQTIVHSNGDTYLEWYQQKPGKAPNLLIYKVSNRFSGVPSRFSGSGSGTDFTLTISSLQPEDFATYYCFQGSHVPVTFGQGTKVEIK . Value?
Marked response: 6.64e+06

Exam item: Endpoint output: kon of 54V heavy chain / 101V light chain (antibody, V domains shown, IgG) VH: EVQLVESGGGLVQPGGSLRLSCAASGYTFTDYYMNWVRQAPGKGLEWIGDINPVTGDTSYNADFKRRFTFSLDTSKSTAYLQMNSLRAEDTAVYYCTREGPSFAYWGQGTLVTVSS VL: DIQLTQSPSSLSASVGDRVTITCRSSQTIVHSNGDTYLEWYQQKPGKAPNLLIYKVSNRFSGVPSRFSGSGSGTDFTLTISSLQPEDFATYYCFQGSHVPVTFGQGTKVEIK . Value?
Marked response: 4.88e+06

Exam item: Endpoint output: kon of 54V heavy chain / KCD119 TAF light chain (antibody, V domains shown, IgG; also called 54V/wt) VH: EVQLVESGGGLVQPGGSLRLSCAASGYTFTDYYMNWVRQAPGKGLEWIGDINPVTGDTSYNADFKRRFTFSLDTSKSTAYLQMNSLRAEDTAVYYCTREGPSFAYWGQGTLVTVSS VL: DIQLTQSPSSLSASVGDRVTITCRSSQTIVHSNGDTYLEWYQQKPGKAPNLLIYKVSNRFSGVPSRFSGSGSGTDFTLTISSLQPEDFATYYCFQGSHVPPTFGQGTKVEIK . Value?
Marked response: 4.09e+06
